target: SOS1-KRAS (Homo sapiens, UniProt Q07889); assay: Inhibition of SOS1/KRAS G12D mutant (unknown origin) protein-protein interaction using GDP nucleotide as substrate measured after 30 mins by Alphascreen assay
recordedMetric: pIC50
Answers are plain numbers, as −log10 of the molar value.

These recorded examples may help you get a feel for the data.
COc1cc2nc(C)nc(N[C@H](C)c3cc(N)cc(C(F)(F)F)c3)c2cc1OC; 7.82
COc1cc2nc(C)nc(N[C@H](C)c3cccc(S(N)(=O)=O)c3)c2cc1OC; 7.25
COc1cc2nc(C)nc(N[C@H](C)c3cccc(C(F)(F)F)c3)c2cc1OC; 6.97
COc1cc2nc(C)nc(N[C@H](C)c3cccc(N)c3)c2cc1OC; 6.45

Count: 5. Required value per item: pIC50.
1. Cc1nc(N[C@H](C)c2cc(N)cc(C(F)(F)F)c2)c2cc(Cl)ccc2n1
2. COc1cc2ncnc(N[C@H](C)c3ccccc3)c2cc1OC
3. CC(C)c1noc2ncc(C(=O)NC(C)c3cccc(S(N)(=O)=O)c3)cc12 (centres undefined)
4. COc1ccc2nc(C)nc(N[C@H](C)c3cc(N)cc(C(F)(F)F)c3)c2c1
5. COc1cc2nc(C)nc(N[C@H](C)c3ccccc3)c2cc1OC

// result
1. 5.42
2. 5.98
3. 5.92
4. 7.48
5. 6.34

###

Exercise: for every item that follows, state its recorded pEC50.
target: UniProt:Q07889; assay: Activation of SOS1/KRAS G12D mutant (unknown origin) protein-protein interaction using GDP nucleotide as substrate measured after 30 mins by Alphascreen assay
One number for each entry, as −log10 of the molar value.

Cc1nc(N[C@H](C)c2cc(N)cc(C(F)(F)F)c2)c2cc(F)ccc2n1; 6.03

// query // returns reported pEC50 for input "N[C@@H](Cc1c[nH]c2ccccc12)C(=O)NC1CCN(Cc2c[nH]c3ccccc23)CC1"
// result 4.95

###

assay: Oral bioavailability in mouse; format: ADME, organism-based; conditions: in vivo
recordedMetric: bioavailability (%)
One number for each entry, in %.

// query // returns reported bioavailability for input "COc1cc2nc(C)nc(N[C@H](C)c3cc(N)cc(C(F)(F)F)c3)c2cc1O[C@H]1CCOC1"
// result 100

###

experiment: Efflux ratio of apparent permeability from basolateral to apical side over apical to basolateral side in human Caco-2 cells at 10 uM
recordedMetric: efflux ratio at 10 µM
One number for each entry.

These recorded examples may help you get a feel for the data.
COc1cc2nc(C)nc(N[C@H](C)c3ccccc3)c2cc1OC; 0.6
COc1cc2nc(C)nc(N[C@H](C)c3cccc(N)c3)c2cc1OC; 1.3
COc1cc2nc(C)nc(N[C@H](C)c3cc(N)cc(C(F)(F)F)c3)c2cc1OC; 0.7
COc1cc2nc(C)nc(N[C@H](C)c3cccc(C(F)(F)F)c3)c2cc1OC; 0.3

// query // returns reported efflux ratio at 10 µM for input "COc1cc2nc(C)nc(N[C@H](C)c3cccc(S(N)(=O)=O)c3)c2cc1OC"
// result 50

###

Molecular target: Son of sevenless homolog 1 (Homo sapiens)
Sequence (Q07889 whole entry): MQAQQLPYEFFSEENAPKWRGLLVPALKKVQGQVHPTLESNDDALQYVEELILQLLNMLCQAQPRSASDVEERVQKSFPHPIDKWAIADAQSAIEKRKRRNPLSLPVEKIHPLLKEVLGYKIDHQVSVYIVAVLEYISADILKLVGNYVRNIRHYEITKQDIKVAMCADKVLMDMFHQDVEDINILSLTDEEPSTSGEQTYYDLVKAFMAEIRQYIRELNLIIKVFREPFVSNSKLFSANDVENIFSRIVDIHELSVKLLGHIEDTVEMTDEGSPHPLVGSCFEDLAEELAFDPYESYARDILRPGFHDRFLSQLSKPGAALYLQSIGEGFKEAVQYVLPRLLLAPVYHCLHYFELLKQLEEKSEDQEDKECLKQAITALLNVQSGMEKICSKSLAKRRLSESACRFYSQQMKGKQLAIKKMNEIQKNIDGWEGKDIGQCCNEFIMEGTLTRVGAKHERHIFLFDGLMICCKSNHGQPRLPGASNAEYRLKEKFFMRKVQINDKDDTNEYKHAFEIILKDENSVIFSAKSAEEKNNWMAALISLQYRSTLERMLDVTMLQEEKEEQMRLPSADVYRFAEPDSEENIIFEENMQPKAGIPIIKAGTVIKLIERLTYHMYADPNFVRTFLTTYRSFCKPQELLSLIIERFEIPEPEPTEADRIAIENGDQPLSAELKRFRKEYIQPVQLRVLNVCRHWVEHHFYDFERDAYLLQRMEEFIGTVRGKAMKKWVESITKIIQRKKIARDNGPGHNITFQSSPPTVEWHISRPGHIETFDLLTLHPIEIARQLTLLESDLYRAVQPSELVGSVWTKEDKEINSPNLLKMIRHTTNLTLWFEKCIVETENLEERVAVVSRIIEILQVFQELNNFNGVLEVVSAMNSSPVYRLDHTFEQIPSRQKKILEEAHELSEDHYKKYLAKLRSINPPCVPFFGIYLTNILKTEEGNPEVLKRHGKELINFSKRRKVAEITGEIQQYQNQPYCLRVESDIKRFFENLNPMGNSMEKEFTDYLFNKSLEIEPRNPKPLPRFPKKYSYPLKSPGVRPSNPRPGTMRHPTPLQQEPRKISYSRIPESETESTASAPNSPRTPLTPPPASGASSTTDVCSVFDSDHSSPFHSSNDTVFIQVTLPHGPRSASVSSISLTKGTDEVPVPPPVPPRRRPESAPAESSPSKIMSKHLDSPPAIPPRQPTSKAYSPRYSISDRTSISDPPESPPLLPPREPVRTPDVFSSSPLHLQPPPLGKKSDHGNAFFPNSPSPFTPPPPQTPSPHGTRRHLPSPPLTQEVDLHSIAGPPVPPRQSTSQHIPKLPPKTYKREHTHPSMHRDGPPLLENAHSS
recordedMetric: Kd (nM)
Numbers only, in nM.

These recorded examples may help you get a feel for the data.
COc1cc2nc(C)nc(N[C@H](C)c3cccc(C(F)(F)F)c3)c2cc1OC; 104
COc1cc2nc(C)nc(N[C@H](C)c3cccc(N)c3)c2cc1OC; 123
N[C@@H](Cc1c[nH]c2ccccc12)C(=O)NC1CCN(Cc2c[nH]c3ccccc23)CC1; 19300
COc1cc2nc(C)nc(N[C@H](C)c3cccc(S(N)(=O)=O)c3)c2cc1OC; 16
COc1cc2ncnc(N[C@H](C)c3ccccc3)c2cc1OC; 301

--- query ---
// query // returns reported Kd for input CC(C)c1noc2ncc(C(=O)NC(C)c3cccc(S(N)(=O)=O)c3)cc12 (stereo unspecified)
// result 937
